Counter-ions that a name gives are not always drawn.
// each record: one item and its pIC50 for PKCd (Homo sapiens (Human))
A value of pIC50 is the negative decimal logarithm of a concentration given in moles per litre.

[[record]]
compound = "C[C@@H]1C[C@H]2[C@@H]3CCC4=CC(=O)C=C[C@]4(C)[C@@]3(F)[C@@H](O)C[C@]2(C)[C@@]1(O)C(=O)COC(=O)CCC(=O)OCc1ccc([C@@H](CN)C(=O)Nc2ccc3cnccc3c2)cc1 [Example 25]"
val = 6.65

[[record]]
compound = "C[C@@H]1C[C@H]2[C@@H]3CCC4=CC(=O)C=C[C@]4(C)[C@@]3(F)[C@@H](O)C[C@]2(C)[C@@]1(O)C(=O)COC(=O)c1ccc(C(=O)OCc2ccc([C@@H](CN)C(=O)Nc3ccc4cnccc4c3)cc2)cc1 [Example 66, dihydrochloride]"
val = 6.45

[[record]]
compound = "C[C@]12C=CC(=O)C=C1CC[C@@H]1[C@@H]2[C@@H](O)C[C@@]2(C)[C@H]1CC[C@]2(O)C(=O)COC(=O)C1CC1C(=O)OCc1ccc([C@@H](CN)C(=O)Nc2ccc3cnccc3c2)cc1 (stereo partly shown) [Example 19]"
val = 6.23


Then this compound:
Task: Identify measured pIC50 corresponding to C[C@@H]1C[C@H]2[C@@H]3CCC4=CC(=O)C=C[C@]4(C)[C@@]3(F)[C@@H](O)C[C@]2(C)[C@@]1(O)C(=O)COC(=O)C[C@H](N)C(=O)OCc1ccc([C@@H](CN)C(=O)Nc2ccc3cnccc3c2)cc1 [Example 83, trihydrochloride]
Output: 7.25

###

// each record: one item and its IC50 for UniProtKB P23458
Sequence (P23458 whole entry, species assumed): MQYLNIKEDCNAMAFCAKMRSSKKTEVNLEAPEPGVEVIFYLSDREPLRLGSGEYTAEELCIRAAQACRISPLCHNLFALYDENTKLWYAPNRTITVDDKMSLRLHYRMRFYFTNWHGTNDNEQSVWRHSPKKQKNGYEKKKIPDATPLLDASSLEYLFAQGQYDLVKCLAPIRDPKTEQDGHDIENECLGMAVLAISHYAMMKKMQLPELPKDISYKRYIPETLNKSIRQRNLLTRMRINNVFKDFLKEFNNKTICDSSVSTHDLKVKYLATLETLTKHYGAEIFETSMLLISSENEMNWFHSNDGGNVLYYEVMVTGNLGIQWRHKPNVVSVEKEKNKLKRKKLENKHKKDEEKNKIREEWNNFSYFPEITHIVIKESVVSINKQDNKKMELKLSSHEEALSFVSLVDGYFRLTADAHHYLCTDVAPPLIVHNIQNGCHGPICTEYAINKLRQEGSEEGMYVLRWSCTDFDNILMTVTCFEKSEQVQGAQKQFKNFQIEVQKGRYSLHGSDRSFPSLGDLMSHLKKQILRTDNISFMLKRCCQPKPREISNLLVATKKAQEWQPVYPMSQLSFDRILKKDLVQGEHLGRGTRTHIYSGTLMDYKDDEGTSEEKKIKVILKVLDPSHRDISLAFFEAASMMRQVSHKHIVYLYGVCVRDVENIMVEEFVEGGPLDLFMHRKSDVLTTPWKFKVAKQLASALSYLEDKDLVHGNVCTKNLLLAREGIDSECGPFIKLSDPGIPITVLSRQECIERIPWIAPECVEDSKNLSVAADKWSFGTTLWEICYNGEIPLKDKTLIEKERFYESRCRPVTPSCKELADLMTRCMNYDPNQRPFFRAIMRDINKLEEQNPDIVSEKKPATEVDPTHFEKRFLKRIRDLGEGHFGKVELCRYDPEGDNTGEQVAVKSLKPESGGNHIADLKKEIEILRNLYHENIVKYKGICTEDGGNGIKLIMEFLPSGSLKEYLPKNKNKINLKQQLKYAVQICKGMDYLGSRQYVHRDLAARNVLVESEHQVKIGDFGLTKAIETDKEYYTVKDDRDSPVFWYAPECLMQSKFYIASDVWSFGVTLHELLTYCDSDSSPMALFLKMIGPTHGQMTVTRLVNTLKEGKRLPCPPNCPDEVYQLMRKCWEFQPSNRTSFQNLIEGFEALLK
Structures can show the parent of a compound that is named as a salt.
The reply should contain only the number, in µM.

Below: 6 molecules and their reported IC50.
[[record]]
molecule = "CC1(C)O[C@@H]2C[C@H]3[C@@H]4C[C@H](F)C5=CC(=O)C=C[C@]5(C)[C@@]4(F)[C@@H](O)C[C@]3(C)[C@]2(C(=O)COC(=O)CCC(=O)OCc2ccc([C@@H](CN)C(=O)Nc3ccc4cnccc4c3)cc2)O1"
experimental_endpoint = "IC50"
val = 50

[[record]]
molecule = "C[C@@H]1C[C@H]2[C@@H]3CCC4=CC(=O)C=C[C@]4(C)[C@@]3(F)[C@@H](O)C[C@]2(C)[C@@]1(O)C(=O)COC(=O)C1CC1C(=O)OCc1ccc([C@@H](CN)C(=O)Nc2ccc3cnccc3c2)cc1 (stereo partly shown)"
experimental_endpoint = "IC50"
val = 50

[[record]]
molecule = "C[C@@H]1C[C@H]2[C@@H]3CCC4=CC(=O)C=C[C@]4(C)[C@@]3(F)[C@@H](O)C[C@]2(C)[C@@]1(O)C(=O)COC(=O)c1ccc(C(=O)OCc2ccc([C@@H](CN)C(=O)Nc3ccc4cnccc4c3)cc2)cc1 [Example 66, dihydrochloride]"
experimental_endpoint = "IC50"
val = 50

[[record]]
molecule = "CC1(C)O[C@@H]2C[C@H]3[C@@H]4CCC5=CC(=O)C=C[C@]5(C)[C@@]4(F)[C@@H](O)C[C@]3(C)[C@]2(C(=O)COC(=O)CCC(=O)OCc2ccc([C@@H](CN)C(=O)Nc3ccc4cnccc4c3)cc2)O1"
experimental_endpoint = "IC50"
val = 50

[[record]]
molecule = "C[C@@H]1C[C@H]2[C@@H]3CCC4=CC(=O)C=C[C@]4(C)[C@@]3(F)[C@@H](O)C[C@]2(C)[C@@]1(O)C(=O)COC(=O)C[C@H](N)C(=O)OCc1ccc([C@@H](CN)C(=O)Nc2ccc3cnccc3c2)cc1 [Example 83, trihydrochloride]"
experimental_endpoint = "IC50"
val = 34.7

[[record]]
molecule = "C[C@@H]1C[C@H]2[C@@H]3CCC4=CC(=O)C=C[C@]4(C)[C@@]3(F)[C@@H](O)C[C@]2(C)[C@@]1(O)C(=O)COC(=O)CCC(=O)OCc1ccc([C@@H](CN)C(=O)Nc2ccc3cnccc3c2)cc1"
experimental_endpoint = "IC50"
val = 50


Then this molecule:
Task: Identify measured IC50 corresponding to C[C@]12C=CC(=O)C=C1CC[C@@H]1[C@@H]2[C@@H](O)C[C@@]2(C)[C@H]1CC[C@]2(O)C(=O)COC(=O)C1CC1C(=O)OCc1ccc([C@@H](CN)C(=O)Nc2ccc3cnccc3c2)cc1 (stereo partly shown)
Output: 9.57
